All values here come from patent US20060257406A1.

- targetOrSystem: T1, human TNFα (human, UniProt P01375 77-233)
- T1 construct: also called TAR1; TNF alpha
- T1 sequence (P01375 77-233 limits assumed): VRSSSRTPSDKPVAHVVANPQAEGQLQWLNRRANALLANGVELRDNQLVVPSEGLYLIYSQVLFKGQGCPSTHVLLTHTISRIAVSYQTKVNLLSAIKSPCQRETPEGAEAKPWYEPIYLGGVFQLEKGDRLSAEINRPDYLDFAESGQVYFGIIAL
- assayInfo: TNF receptor assay (ELISA): inhibition of TNF binding to plate-bound TNF receptor 1-Fc
Here, each record is paired with measured IC50 data.

>  <binder>
TAR1-5d6 (other, FPLC purified large dimeric species; also called dimer 6) DIQMTQSPSSLSASVGDRVTITCRASQSIFMNLLWYQQKPGKAPKLLIYNASVLQSGVPSRFSGSGSGTDFTLTISSLQPEDFATYYCQQVVWRPFTFGQGTKVEIKRGGGGSGGGGSGGGGSGGGGSGGGGSGGGGSGGGGSDIQMTQSPSSLSASVGDRVTITCRASQSIYDALEWYQQKPGKAPKLLIYTASRLQSGVPSRFSGSGSGTDFTLTISSLQPEDFATYYCQQVMQRPVTFGQGTKVEIK

>  <result>
~100 nM

$$$$
>  <binder>
TAR1-5d1 (other, dAb-linker-dAb dimer; FPLC purified small dimeric species; also called dimer 1) DIQMTQSPSSLSASVGDRVTITCRASQSIFMNLLWYQQKPGKAPKLLIYNASVLQSGVPSRFSGSGSGTDFTLTISSLQPEDFATYYCQQVVWRPFTFGQGTKVEIKRGGGGSGGGGSGGGGSDIQMTQSPSSLSASVGDRVTITCRASQSIYDALEWYQQKPGKAPKLLIYTASRLQSGVPSRFSGSGSGTDFTLTISSLQPEDFATYYCQQVMQRPVTFGQGTKVEIK

>  <result>
~30 nM

$$$$
>  <binder>
TAR1-5d5 (other, FPLC purified large dimeric species; also called dimer 5) DIQMTQSPSSLSASVGDRVTITCRASQSIFMNLLWYQQKPGKAPKLLIYNASVLQSGVPSRFSGSGSGTDFTLTISSLQPEDFATYYCQQVVWRPFTFGQGTKVEIKRGGGGSGGGGSGGGGSGGGGSGGGGSDIQMTQSPSSLSASVGDRVTITCRASQSIYDALEWYQQKPGKAPKLLIYTASRLQSGVPSRFSGSGSGTDFTLTISSLQPEDFATYYCQQVMQRPVTFGQGTKVEIK

>  <result>
~200 nM

$$$$

Turning now to a further record.
For TAR1-5d4 (other, FPLC purified small dimeric species; also called TAR1-5 dimer 4) DIQMTQSPSSLSASVGDRVTITCRASQSIFMNLLWYQQKPGKAPKLLIYNASVLQSGVPSRFSGSGSGTDFTLTISSLQPEDFATYYCQQVVWRPFTFGQGTKVEIKRGGGGSGGGGSGGGGSGGGGSGGGGSDIQMTQSPSSLSASVGDRVTITCRASQSVKEFLWWYQQKPGKAPKLLIYMASNLQSGVPSRFSGSGSGTDFTLTISSLQPEDFATYYCQQKFKLPRTFGQGTKVEIK , write its IC50. ~3 nM
